- testedTarget: T1, human CD20 (human, UniProt P11836 1-297)
- T1 construct: whole, on cells; also called cell surface CD20
- T1 sequence (looked up): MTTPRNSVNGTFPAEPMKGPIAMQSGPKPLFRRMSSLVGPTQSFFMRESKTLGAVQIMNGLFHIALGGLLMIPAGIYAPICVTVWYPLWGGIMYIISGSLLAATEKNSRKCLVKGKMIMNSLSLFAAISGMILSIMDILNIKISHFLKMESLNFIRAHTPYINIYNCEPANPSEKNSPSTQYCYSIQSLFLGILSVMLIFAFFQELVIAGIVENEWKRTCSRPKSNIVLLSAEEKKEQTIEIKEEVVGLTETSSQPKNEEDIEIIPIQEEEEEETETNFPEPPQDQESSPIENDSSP
- methodSummary: indirect immunofluorescence, flow cytometry, Raji cells, saturating mAb
measure: mean linear fluorescence intensity

binder: 1F5 anti-CD20 monoclonal antibody (antibody, V domains shown) VH: QVQLRQPGAELVKPGASVKMSCKASGYTFTSYNMHWVKQTPGQGLEWIGAIYPGNGDTSYNQKFKGKATLTADKSSSTAYMQLSSLTSEDSAVYYCARSHYGSNYVDYFDYWGQGTTLTVSS VL: DIVLSQSPAILSASPGEKVTMTCRASSSLSFMHWYQQKPGSSPKPWIYATSNLASGVPARFSGSGSGTSYSLTISRVEAEDAATYFCHQWSSNPLTFGAGTKLELK
result: 455 mean linear fluorescence intensity
--
binder: HB20-3 monoclonal antibody (antibody, V domains shown, Used as tissue culture supernatant; also called HB20-03; HB13c) VH: EVQLQESGAELVKPGASVKMSCKASGFTFTNYNMHWLKQTPGQGLEWIGAIYPENGDTSYNQKFKGKATLTADKASSTAYMHLSSLTSEDSAVYFCARFYYYGSYYGAMDYWGQGTSVTVSS VL: DIQMTQSPASLSASVGETVTITCRASGNIHNYLAWYQQKQGKSPQLLVYNAKTLADGVPSRFSGSGSGTQFSLKINSLQPEDFGSYYCQHFWSTPWTFGGGTKLEIKR
result: 2220 mean linear fluorescence intensity
--
binder: HB20-4 monoclonal antibody (antibody, V domains shown, Used as tissue culture supernatant; also called HB20-04; HB13d) VH: EVQLQESGAELVKPGASVKMSCKASGFTFTNYNMHWVKQTPGQGLEWIGAIYPENGDTSYNQRFKGKATLTADKSSSTAYMHLSSLTSEDTAVYFCARFYYYGSYYGALDYWGQGTSVTVSS VL: DIQMTQSPASLSASVGETVTITCRASGSIHNYLAWYQQKLGKSPQLLVYNAKTLADGVPSRFSGSGSGTQFSLKINSLQPEDFGSYYCQHFWSIPWTFGGGTKLEIKR
result: 1580 mean linear fluorescence intensity
--
binder: HB20-25 monoclonal antibody (antibody, V domains shown, Used as tissue culture supernatant) VH: EVQLQESGAELVKPGASVKMSCKASGFRFTNYNLHWVKQTPGQGLEWIGAIYPGNGETSYNQKFKGKATLTADKSSSTAYMQLRSLTSGDSAVYYCARFYYYGSSYGAMDYWGQGTSVTVSS VL: DIQMTQSPASLSVSVGETVTITCRASENIYSNLAWYQQKQGKSPQLLVYAATNLADGVPSRFSGSGSGTQYSLKINSLQSEDFGSYYCQHFWGIPWTFGGGTKLEIKR
result: 1350 mean linear fluorescence intensity
--
binder: B9E9 anti-CD20 monoclonal antibody (antibody, V domains shown) VH: QVQLVQSGAELVKPGASVKMSCKASGYTFTSYNMHWVKQTPGQGLEWIGAIYPGNGDTSYNQKFKGKATLTADKSSSTAYMQLSSLTSEDSAVYYCARAQLRPNYWYFDVWGAGTTVTVSS VL: DIVLSQSPAILSASPGEKVTMTCRASSSVSYMHWYQQKPGSSPKPWIYATSNLASGVPARFSGSGSGTSYSLTISRVEAEDAATYYCQQWISNPPTFGAGTKLELK
result: 438 mean linear fluorescence intensity
--
binder: 1H4 (IgG2a) anti-CD20 monoclonal antibody (antibody) chain 1: QVQLQQPGAELVKPGASVKMSCKTSGYTFTSYNVHWVKQTPGQGLEWIGAIYPGNGDTSFNQKFKGKATLTADKSSSTVYMQLSSLTSEDSAVYYCARSNYYGSSYVWFFDVWGAGTTGTGSS chain 2: QIVLSQSPTILSASPGEKVTMTCRASSSVSYMDWYQQKPGSSPKPWIYATSNLASGVPARFSGSGSGTSYSLTISRVEAEDAATYYCQQWISNPPTFGAGTKLELK
result: 244 mean linear fluorescence intensity
